TGI listing for selected compounds.
Tested on: NCI-H23 lung
RUN_DESCRIPTION: NCI tumour cell line growth inhibition, 48 h
READOUT_TYPE: TGI

>>> measured("O=[N+]([O-])c1cccc(C=NC23CC4CC(CC(C4)C2)C3)c1")
"> 100 µM"
>>> measured("OC1CCC(COC(c2ccccc2)(c2ccccc2)c2ccccc2)O1 (stereo unspecified)")
"35.4 µM"
>>> measured("COC(=O)c1oc([N+](=O)[O-])c(-c2ccccc2)c1-c1ccccc1")
"> 100 µM"
>>> measured("CC(=O)OCc1cc(OC(C)=O)c2cc3c(OC(C)=O)cccc3c(OC(C)=O)c2c1")
"56.8 µM"
>>> measured("CNC(=O)Nn1c(SC)nc2ccccc21")
"> 100 µM"
>>> measured("O=C(O)COc1ccc2c3c1C(=O)CCC3CO2 (stereo unspecified)")
"> 100 µM"

* * *

Tested on: SF-539 CNS
RUN_DESCRIPTION: NCI tumour cell line growth inhibition, 48 h
READOUT_TYPE: TGI

>>> measured("CC(=O)OCC(OC(C)=O)C(OC(C)=O)C(/C=N\\Nc1nc2ccccc2c(=O)[nH]1)OC(C)=O (stereo unspecified)")
"> 100 µM"
>>> measured("CC(=O)OC12c3ccccc3C(c3ccccc31)C1C(=O)N(Nc3ccccc3)C(=O)C12 (stereo unspecified)")
"> 100 µM"
>>> measured("Cc1cc(N(C)C)ccc1N=Nc1ccc2ncccc2c1")
"> 100 µM"
>>> measured("S=c1sc2sc(=S)sc2s1")
"57.8 µM"
>>> measured("CC(C)c1ccc2c(c1)CCC1C(C)(CN)CCCC21C (stereo unspecified)")
"3.36 µM"
>>> measured("CC1(C)CCCCC1/C=C/C(CC(O)(C(F)(F)F)C(F)(F)F)=N\\Nc1ccc([N+](=O)[O-])cc1[N+](=O)[O-] (stereo unspecified)")
"0.973 µM"
>>> measured("COc1ccc(-c2cc(=O)c3cc4c(cc3[nH]2)OCO4)c(OC)c1")
"> 100 µM"
>>> measured("O=C(CC(O)(C(F)(F)Cl)C(F)(F)Cl)CC(O)(C(F)(F)Cl)C(F)(F)Cl")
"> 10 µM"
>>> measured("COC(=O)Nc1nc2ccc(C(=O)C3CC3)cc2[nH]1")
"3.06 µM"
>>> measured("COc1ccc(/C=C2\\N=C(N3CCOCC3)NC2=O)cc1")
"> 100 µM"
>>> measured("Clc1ccc(-c2cn3c(nc4ccccc43)c(/C=C/c3cccs3)n2)cc1")
"> 100 µM"

* * *

Test system: SK-MEL-5 melanoma
RUN_DESCRIPTION: NCI tumour cell line growth inhibition, 48 h
TGI listing for selected compounds.
READOUT_TYPE: TGI

>>> measured("CCCc1c(O)c2ccccc2[nH]c1=O")
"> 100 µM"
>>> measured("Nc1c2ccccc2nc2nccnc12")
"> 100 µM"
>>> measured("O=C(NC/C=C/CO)c1ccccc1")
"> 100 µM"
>>> measured("N#C/C(=C\\c1ccc([N+](=O)[O-])cc1)n1nnc2cc(F)c(F)cc21")
"3.69 µM"
>>> measured("COc1ccc2cc(NC(=O)Nn3cnnc3)ccc2c1")
"> 100 µM"
>>> measured("NS(=O)(=O)c1ccc(N=Nc2c(O)[nH]c3cccc(CCc4ccncc4)c23)cc1")
"> 25 µM"

All figures here come from PubChem BioAssay (NCI).
